Biological target: HIPK3 (human)
Test: radiometric filter-binding kinase assay
Conditions: compound 0.01 µM
quantity.name: residual activity (%)

Quickly give me recorded residual activity for CNC(=O)C1[C@H]2O[C@@](C)([C@@H]1N)n1c3ccccc3c3c4c(c5c6ccccc6n2c5c31)C(=O)NC4 (stereo not given in full)
83

Quickly give me recorded residual activity for CNc1nc(-c2ccc3c(N)n[nH]c3c2)cc(N2C[C@@H](C(=O)NC3CCCCC3)CC[C@H]2C)n1
111

Quickly give me recorded residual activity for O=C(Nc1nc2cc(C(F)(F)F)cc(NC3CC3)n2n1)c1cccnc1
101

Quickly give me recorded residual activity for COc1ccc(N(C(=O)Nc2c(C)cccc2C)c2cc(Nc3ccc(N4CCN(C)CC4)cc3)ncn2)c(OC)c1
80

Quickly give me recorded residual activity for COc1cc(O)c2c(c1)[C@H]1OC1C[C@H](O)[C@H](O)C(=O)/C=C\C[C@H](C)OC2=O (stereo not given in full)
104

====

Biological target: MAP3K9 (human)
Experiment: radiometric filter-binding kinase assay
Settings: compound 0.01 µM
quantity.name: residual activity (%)

Recorded residual activity, per entry:
Quickly give me recorded residual activity for O=C(Nc1nc2cc(C(F)(F)F)cc(NC3CC3)n2n1)c1cccnc1
90

Quickly give me recorded residual activity for COc1ccc(N(C(=O)Nc2c(C)cccc2C)c2cc(Nc3ccc(N4CCN(C)CC4)cc3)ncn2)c(OC)c1
101

Quickly give me recorded residual activity for CNc1nc(-c2ccc3c(N)n[nH]c3c2)cc(N2C[C@@H](C(=O)NC3CCCCC3)CC[C@H]2C)n1
110

P: CNC(=O)C1[C@H]2O[C@@](C)([C@@H]1N)n1c3ccccc3c3c4c(c5c6ccccc6n2c5c31)C(=O)NC4 (stereo not given in full)
Q: COc1cc(O)c2c(c1)[C@H]1OC1C[C@H](O)[C@H](O)C(=O)/C=C\C[C@H](C)OC2=O (stereo not given in full)
Please state the entry with greater residual activity among P and Q . The response must carry the label of the picked entry.
Q

====

Target: ERBB4 (human) (UniProt Q15303)
Sequence (Q15303 whole entry, looked up): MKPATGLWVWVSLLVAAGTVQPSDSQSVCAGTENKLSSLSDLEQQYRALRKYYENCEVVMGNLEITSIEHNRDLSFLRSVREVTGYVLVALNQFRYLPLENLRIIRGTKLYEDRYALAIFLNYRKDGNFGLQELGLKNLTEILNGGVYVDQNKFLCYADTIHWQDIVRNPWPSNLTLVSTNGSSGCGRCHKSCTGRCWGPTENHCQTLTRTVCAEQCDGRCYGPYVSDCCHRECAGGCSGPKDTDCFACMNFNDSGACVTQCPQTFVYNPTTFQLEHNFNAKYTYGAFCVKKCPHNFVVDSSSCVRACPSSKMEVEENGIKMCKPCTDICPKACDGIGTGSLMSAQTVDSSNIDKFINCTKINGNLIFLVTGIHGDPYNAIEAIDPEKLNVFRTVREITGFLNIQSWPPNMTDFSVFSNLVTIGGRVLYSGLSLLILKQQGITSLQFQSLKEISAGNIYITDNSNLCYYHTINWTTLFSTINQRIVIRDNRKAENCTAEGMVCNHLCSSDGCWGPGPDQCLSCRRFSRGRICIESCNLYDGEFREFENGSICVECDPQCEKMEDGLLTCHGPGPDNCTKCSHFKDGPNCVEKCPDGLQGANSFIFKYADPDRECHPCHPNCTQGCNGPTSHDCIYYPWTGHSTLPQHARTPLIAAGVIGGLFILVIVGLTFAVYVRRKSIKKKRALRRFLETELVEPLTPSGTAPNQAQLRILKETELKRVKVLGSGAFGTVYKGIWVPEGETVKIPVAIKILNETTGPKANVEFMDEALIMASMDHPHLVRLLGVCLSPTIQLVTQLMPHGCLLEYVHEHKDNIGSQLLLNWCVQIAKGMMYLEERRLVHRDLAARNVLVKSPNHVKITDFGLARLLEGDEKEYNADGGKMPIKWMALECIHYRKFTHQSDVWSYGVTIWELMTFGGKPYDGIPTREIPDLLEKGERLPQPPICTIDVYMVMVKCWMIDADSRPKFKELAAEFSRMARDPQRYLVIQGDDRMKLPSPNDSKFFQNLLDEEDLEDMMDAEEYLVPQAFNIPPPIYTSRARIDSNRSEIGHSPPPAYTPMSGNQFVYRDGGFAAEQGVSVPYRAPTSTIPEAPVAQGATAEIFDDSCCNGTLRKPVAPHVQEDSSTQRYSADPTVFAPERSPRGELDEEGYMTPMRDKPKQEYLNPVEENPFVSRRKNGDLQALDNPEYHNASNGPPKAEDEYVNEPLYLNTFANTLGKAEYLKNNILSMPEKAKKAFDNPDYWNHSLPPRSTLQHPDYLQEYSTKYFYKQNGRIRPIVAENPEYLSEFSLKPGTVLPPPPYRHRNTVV
Assay: radiometric filter-binding kinase assay
Conditions: compound 0.01 µM
quantity.name: residual activity (%)

Quickly give me recorded residual activity for CNC(=O)C1[C@H]2O[C@@](C)([C@@H]1N)n1c3ccccc3c3c4c(c5c6ccccc6n2c5c31)C(=O)NC4 (some centres undefined)
96

Quickly give me recorded residual activity for O=C(Nc1nc2cc(C(F)(F)F)cc(NC3CC3)n2n1)c1cccnc1
106

Quickly give me recorded residual activity for COc1ccc(N(C(=O)Nc2c(C)cccc2C)c2cc(Nc3ccc(N4CCN(C)CC4)cc3)ncn2)c(OC)c1
90

Quickly give me recorded residual activity for CNc1nc(-c2ccc3c(N)n[nH]c3c2)cc(N2C[C@@H](C(=O)NC3CCCCC3)CC[C@H]2C)n1
106

====

Biological target: MKNK1 (human) (UniProt Q9BUB5)
Sequence (Q9BUB5 whole entry, looked up): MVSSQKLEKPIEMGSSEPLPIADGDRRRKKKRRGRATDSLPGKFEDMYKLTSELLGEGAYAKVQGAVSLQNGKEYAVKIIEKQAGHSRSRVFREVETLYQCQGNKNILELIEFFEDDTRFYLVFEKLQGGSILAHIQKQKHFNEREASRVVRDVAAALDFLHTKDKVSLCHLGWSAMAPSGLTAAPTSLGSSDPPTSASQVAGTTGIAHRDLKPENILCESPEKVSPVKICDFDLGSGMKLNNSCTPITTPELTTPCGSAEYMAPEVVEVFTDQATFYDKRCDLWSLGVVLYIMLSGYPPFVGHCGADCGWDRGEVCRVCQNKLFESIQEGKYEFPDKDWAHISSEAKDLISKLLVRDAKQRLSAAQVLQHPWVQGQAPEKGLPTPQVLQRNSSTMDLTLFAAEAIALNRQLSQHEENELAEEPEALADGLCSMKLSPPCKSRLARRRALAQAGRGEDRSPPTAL
Experiment: radiometric filter-binding kinase assay
Settings: compound 1.0 µM
quantity.name: residual activity (%)

Recorded residual activity, per entry:
Quickly give me recorded residual activity for C[C@H]1CCCC(=O)CCC/C=C/c2cc(O)cc(O)c2C(=O)O1
89

Quickly give me recorded residual activity for COc1cc(O)c2c(c1)[C@H]1OC1C[C@H](O)[C@H](O)C(=O)/C=C\C[C@H](C)OC2=O (some centres undefined)
55

Quickly give me recorded residual activity for C=C1C(=O)OC2C1CC/C(C)=C/CCC1(C)OC21 (centres undefined)
116

Quickly give me recorded residual activity for CC1=C(CO)C(=O)O[C@@H]([C@@H](C)[C@H]2CC[C@H]3[C@@H]4C[C@H]5O[C@]56[C@@H](O)C=CC(=O)[C@]6(C)C4CC[C@]23C)C1 (some centres undefined)
100

Quickly give me recorded residual activity for Cc1ccc(Sc2cnc(Nc3cccc(Br)n3)s2)cc1C(=O)N1CCN(C(=O)CN)CC1
103

1: NC(=O)c1cc2c(-c3cccc(-c4ccccc4)c3)cnc(N)c2s1
2: NC(=O)c1cc(-c2ccnc(NC3CCCCC3)c2)nc(N2CCNCC2)c1
Look at 1 and 2 . Which one has the lower recorded residual activity number? The response must carry the label of the picked entry.
2

P: Oc1ccc(/C=C/c2cc(O)cc(O)c2)cc1
Q: NC(=O)Nc1ccc2c(c1)/C(=C/c1cc(-c3cccnc3)c[nH]1)C(=O)N2
Look at P and Q . Which one has the lower recorded residual activity number? The response must carry the label of the picked entry.
Q
(Q: 54%, P: 102%)

====

Molecular target: CDK2 CCNA2 (human) (UniProt P20248+P24941)
Assay: radiometric filter-binding kinase assay
Conditions: compound 10.0 µM
quantity.name: residual activity (%)

Recorded residual activity, per entry:
Quickly give me recorded residual activity for Cn1nc(Nc2ccc(F)cc2)c2c(N)ncnc21
96

Quickly give me recorded residual activity for N#Cc1c(O)c2c(-c3ccc(-c4ccccc4O)cc3)csc2[nH]c1=O
100

Quickly give me recorded residual activity for CCCCCc1ccc(/C=C/[C@H](O)[C@@H](CO)NC)cc1
88

I: Cc1cccc(Nc2nn(C)c3ncnc(N)c23)c1
II: NC(=O)c1cc(-c2ccnc(NC3CCCCC3)c2)nc(N2CCNCC2)c1
Please state the entry with greater residual activity among I and II . The response must carry the label of the picked entry.
I
(I: 91%, II: 11%)

====

System: AKT1 (human), P31749 [S473D]
Sequence (P31749 whole entry S473D, looked up): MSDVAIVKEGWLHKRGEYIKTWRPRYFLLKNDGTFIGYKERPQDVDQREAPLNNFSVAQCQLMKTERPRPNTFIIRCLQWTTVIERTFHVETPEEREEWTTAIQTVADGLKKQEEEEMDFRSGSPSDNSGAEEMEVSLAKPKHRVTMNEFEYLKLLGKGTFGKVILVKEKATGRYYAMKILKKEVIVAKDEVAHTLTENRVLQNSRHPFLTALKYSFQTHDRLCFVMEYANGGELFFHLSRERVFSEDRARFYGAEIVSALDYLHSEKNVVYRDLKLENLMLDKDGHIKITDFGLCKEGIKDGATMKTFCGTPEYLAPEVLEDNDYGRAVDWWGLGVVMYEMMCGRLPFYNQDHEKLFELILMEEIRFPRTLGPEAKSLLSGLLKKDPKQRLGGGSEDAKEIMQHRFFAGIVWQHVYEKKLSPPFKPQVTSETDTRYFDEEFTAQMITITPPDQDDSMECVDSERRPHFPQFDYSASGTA
Assay: radiometric filter-binding kinase assay
Settings: compound 0.01 µM
quantity.name: residual activity (%)

I: C/C(=C1/C(=O)Nc2ccc(NC(N)=O)cc21)c1ccc[nH]1
II: COc1cc(O)c2c(c1)[C@H]1OC1C[C@H](O)[C@H](O)C(=O)/C=C\C[C@H](C)OC2=O (stereo not given in full)
Look at I and II . Which one has the lower recorded residual activity number? The response must carry the label of the picked entry.
I
(I: 76%, II: 109%)

====

Form field: residual activity (one value per entry).
Molecular target: MAPK15 (human) (UniProt Q8TD08)
Sequence (Q8TD08 whole entry, looked up): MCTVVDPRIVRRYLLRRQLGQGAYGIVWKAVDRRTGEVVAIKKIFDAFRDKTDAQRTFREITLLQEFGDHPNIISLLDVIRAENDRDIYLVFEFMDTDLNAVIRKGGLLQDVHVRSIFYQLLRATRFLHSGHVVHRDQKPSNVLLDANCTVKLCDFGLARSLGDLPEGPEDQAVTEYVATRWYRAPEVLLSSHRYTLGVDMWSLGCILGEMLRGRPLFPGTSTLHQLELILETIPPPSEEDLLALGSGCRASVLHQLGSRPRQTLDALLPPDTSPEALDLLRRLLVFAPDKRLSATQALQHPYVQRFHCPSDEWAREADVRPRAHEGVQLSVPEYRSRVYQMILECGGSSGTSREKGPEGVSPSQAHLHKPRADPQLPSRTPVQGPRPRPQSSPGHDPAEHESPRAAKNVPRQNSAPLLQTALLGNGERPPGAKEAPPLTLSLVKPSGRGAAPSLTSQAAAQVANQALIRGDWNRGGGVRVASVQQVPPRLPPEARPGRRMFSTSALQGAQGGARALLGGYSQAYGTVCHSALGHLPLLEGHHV
Test: radiometric filter-binding kinase assay
Details: compound 1.0 µM
Express the result in % but write the number alone.

Recorded residual activity, per entry:
Quickly give me recorded residual activity for CCNc1nc(Nc2cc(F)c(C(=O)N3CCOCC3)cc2OC)ncc1C(F)(F)F
96

Quickly give me recorded residual activity for C=CC(=O)N1CCC[C@@H](n2nc(-c3ccc(Oc4ccccc4)cc3)c3c(N)ncnc32)C1
98

Quickly give me recorded residual activity for FC(F)(F)c1ccc(-c2ccc(Oc3cncc4sc(-c5nn[nH]n5)cc34)cc2)cc1
34

Continuing:
Quickly give me recorded residual activity for O=C(Nc1nc2cc(C(F)(F)F)cc(NC3CC3)n2n1)c1cccnc1
102

Quickly give me recorded residual activity for Cc1cc(NC(=O)c2cccc(NC(=O)/C=C/CN(C)C)c2)ccc1Nc1nccc(-c2cccnc2)n1
64

====

Target: TEK (human)
Assay: radiometric filter-binding kinase assay
Conditions: compound 1.0 µM
quantity.name: residual activity (%)

Recorded residual activity, per entry:
Quickly give me recorded residual activity for O=C(Nc1nc2cc(C(F)(F)F)cc(NC3CC3)n2n1)c1cccnc1
69

Quickly give me recorded residual activity for COc1cc(O)c2c(c1)[C@H]1OC1C[C@H](O)[C@H](O)C(=O)/C=C\C[C@H](C)OC2=O (some centres undefined)
122

1: CNC(=O)C1[C@H]2O[C@@](C)([C@@H]1N)n1c3ccccc3c3c4c(c5c6ccccc6n2c5c31)C(=O)NC4 (some centres undefined)
2: COc1ccc(N(C(=O)Nc2c(C)cccc2C)c2cc(Nc3ccc(N4CCN(C)CC4)cc3)ncn2)c(OC)c1
Please state the entry with greater residual activity among 1 and 2 . The response must carry the label of the picked entry.
2
(2: 42%, 1: 20%)

====

Target: FLT1 (human) (UniProt P17948)
Sequence (P17948 whole entry, looked up): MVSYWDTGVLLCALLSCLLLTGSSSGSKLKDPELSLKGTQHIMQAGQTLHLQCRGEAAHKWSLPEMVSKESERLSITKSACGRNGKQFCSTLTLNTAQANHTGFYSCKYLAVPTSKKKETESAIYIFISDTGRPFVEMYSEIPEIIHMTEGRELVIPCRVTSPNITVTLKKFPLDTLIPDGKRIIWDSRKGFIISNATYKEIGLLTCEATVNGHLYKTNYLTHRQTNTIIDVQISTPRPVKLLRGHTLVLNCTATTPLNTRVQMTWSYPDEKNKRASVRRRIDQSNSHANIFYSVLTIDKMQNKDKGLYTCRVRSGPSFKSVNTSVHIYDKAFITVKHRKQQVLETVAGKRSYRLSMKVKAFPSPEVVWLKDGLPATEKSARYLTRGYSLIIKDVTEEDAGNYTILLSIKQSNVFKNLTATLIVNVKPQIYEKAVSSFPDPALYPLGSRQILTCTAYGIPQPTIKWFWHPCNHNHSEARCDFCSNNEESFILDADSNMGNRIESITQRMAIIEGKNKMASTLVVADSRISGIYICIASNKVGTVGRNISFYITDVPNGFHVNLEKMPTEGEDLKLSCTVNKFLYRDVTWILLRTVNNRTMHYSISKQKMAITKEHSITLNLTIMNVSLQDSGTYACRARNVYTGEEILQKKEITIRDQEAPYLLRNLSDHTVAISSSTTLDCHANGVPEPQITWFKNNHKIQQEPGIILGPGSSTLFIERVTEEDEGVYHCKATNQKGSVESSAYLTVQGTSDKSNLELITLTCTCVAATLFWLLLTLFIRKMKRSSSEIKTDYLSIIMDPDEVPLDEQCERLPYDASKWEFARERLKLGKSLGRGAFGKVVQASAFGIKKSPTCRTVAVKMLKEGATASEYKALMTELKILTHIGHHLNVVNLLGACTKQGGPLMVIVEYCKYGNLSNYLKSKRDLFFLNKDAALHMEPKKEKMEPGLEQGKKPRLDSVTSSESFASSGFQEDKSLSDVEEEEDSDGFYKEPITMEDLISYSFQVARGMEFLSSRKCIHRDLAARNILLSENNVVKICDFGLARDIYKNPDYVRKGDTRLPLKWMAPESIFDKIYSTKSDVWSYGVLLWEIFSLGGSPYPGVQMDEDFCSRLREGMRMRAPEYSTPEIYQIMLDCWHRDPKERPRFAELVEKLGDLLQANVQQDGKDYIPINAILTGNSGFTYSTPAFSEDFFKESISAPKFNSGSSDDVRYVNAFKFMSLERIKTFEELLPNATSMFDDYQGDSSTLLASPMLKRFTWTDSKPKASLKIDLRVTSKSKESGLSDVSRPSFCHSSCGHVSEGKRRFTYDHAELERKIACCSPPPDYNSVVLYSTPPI
Assay: radiometric filter-binding kinase assay
Details: compound 1.0 µM
quantity.name: residual activity (%)

Quickly give me recorded residual activity for CN1C(=O)[C@@H](Cc2c[nH]c3ccccc23)NC1=S
91

A: O=C(Nc1ccccc1-c1cn2c(CN3CCNCC3)csc2n1)c1cnc2ccccc2n1
B: NC(=O)c1c(NC(=O)C2CC2)sc2c1CCCC2
Look at A and B . Which one has the lower recorded residual activity number? The response must carry the label of the picked entry.
B

====

Target: PAK7 (human)
Assay: radiometric filter-binding kinase assay
Settings: compound 1.0 µM
quantity.name: residual activity (%)

Recorded residual activity, per entry:
Quickly give me recorded residual activity for COc1cc(C(=O)N2CCOCC2)c(F)cc1Nc1ncc(C(F)(F)F)c(NC2CC2)n1
94

Quickly give me recorded residual activity for O=c1c(O)c(-c2ccc(O)c(O)c2)oc2cc(O)c(O)c(O)c12
67

Quickly give me recorded residual activity for Cc1ccc(=O)n(-c2ccccc2)c1
88

Quickly give me recorded residual activity for O=C(NCCCNc1nc(Nc2cccc(CN3CCOCC3)c2)ncc1C1CC1)C1CCC1
88

Quickly give me recorded residual activity for O=C(NOC[C@H](O)CO)c1ccc(F)c(F)c1Nc1ccc(I)cc1Cl
104

I: C=C1C(=O)OC2C1CC/C(C)=C/CCC1(C)OC21 (stereo unspecified)
II: COc1ccc(N(C(=O)Nc2c(C)cccc2C)c2cc(Nc3ccc(N4CCN(C)CC4)cc3)ncn2)c(OC)c1
III: CNC(=O)C1[C@H]2O[C@@](C)([C@@H]1N)n1c3ccccc3c3c4c(c5c6ccccc6n2c5c31)C(=O)NC4 (stereo partly specified)
List items by residual activity in falling order. # list labels per requested ordering
I, II, III
